In what follows, each item is paired with its Ki for human CB1 receptors (Homo sapiens).
Entry rule: numbers only, all in nM.

Fill in: Ki of CCN(CC)c1ccc(CN(Cc2ccc3c(c2)OCO3)S(=O)(=O)/C=C/c2ccccc2)cc1 [Compound 29] is ___
1160

Fill in: Ki of CCN(CC)c1ccc(CN(Cc2cc(OC)c(OC)c(OC)c2)S(=O)(=O)c2ccccc2C)cc1 [Compound 14] is ___
180

Fill in: Ki of CCN(CC)c1ccc(CN(Cc2cc(OC)c(OC)c(OC)c2)S(=O)(=O)c2ccc3ccccc3c2)cc1 [Compound 9] is ___
71

Fill in: Ki of CCCCCN(Cc1ccc(N(CC)CC)cc1)C(=O)c1cccs1 [Compound 40] is ___
2440
